assayedSystem: T1, cynomolgus αVβ6 on cells (cynomolgus)
T1 construct: whole, on cells; also called macaque αVβ6; Mac AVB6
assayDetails: FACS, supernatant, HEK-293 transfected with cynomolgus αV and β6
experimentalReadout: % Cells Shifted (%)

INSERT INTO measurements (binder, experimentalreadout, quantitativeresult) VALUES
  ('sc 97 (antibody, V domains shown, lambda light chain; also called sc 097) VH: EVQLVQSGAEVKKPGESLKISCKGSGYSFTSYWIGWVRQMPGKGLEWMGIIYPGDSDTRYSPSFQGQVILSADKSISTAYLQWSSLKASDTAMYYCARHDESSGYYYVFDIWGQGTMVTVSS VL: SYELTQPPSVSVSPGQTARITCSGDALPKKYAYWYQQKSGQAPVLVIYEDIKRPSGIPERFSGSSSGTMATLTISGAQVEDEADYYCYSTDSSGNHWVFFGGGTKLTVL', '% Cells Shifted', 35);
